# Assay remarks: protein stability index of a GFP-peptide fusion (yeast GPS) (PSI 1-4); higher = more stable; sorted into four equal gates, so the index is relative within each strain
# Run conditions: doa10∆
Would you please tag the item Satisfied when its protein stability index is 3 or above, and Not satisfied when it is below?

Qu. Record PIGEAGDFGGWFCPCHG [RIP1] ; criterion: protein stability index no lower than 3. Met?
Ans. Not satisfied

Qu. Record INKQRVPLSDNAIIEAN [RPL7A] ; criterion: protein stability index no lower than 3. Met?
Ans. Not satisfied

Qu. Record MMEEIINVVIKASRKSV [ECM29] ; criterion: protein stability index no lower than 3. Met?
Ans. Not satisfied

Qu. Record MAYFDENLNRNWRGREH [BRN1] ; criterion: protein stability index no lower than 3. Met?
Ans. Satisfied

Qu. Record VGACTDEEMTISQKLHD [RRP43] ; criterion: protein stability index no lower than 3. Met?
Ans. Satisfied

Qu. Record ATPQDAQFYLGKRIAYV [RPL33A] ; criterion: protein stability index no lower than 3. Met?
Ans. Not satisfied

Qu. Record KNKPELYQIDYLGTKVE [PRE1] ; criterion: protein stability index no lower than 3. Met?
Ans. Not satisfied

Qu. Record FQAQQAQQAQQAQQAQQ [SNF2] ; criterion: protein stability index no lower than 3. Met?
Ans. Not satisfied

Qu. Record DDNETENPNFWRQFGNR [GRR1] ; criterion: protein stability index no lower than 3. Met?
Ans. Satisfied

Qu. Record EKRHKNVPVHVSPAFRV [RPS11A] ; criterion: protein stability index no lower than 3. Met?
Ans. Not satisfied

Qu. Record TPNLWAEQPLPVSPLDI [RPS2] ; criterion: protein stability index no lower than 3. Met?
Ans. Not satisfied

Qu. Record FKSSVEMGKTDKSTKTA [YOR098C/NUP1] ; criterion: protein stability index no lower than 3. Met?
Ans. Satisfied

Qu. Record LERIVQIMQNPTHYKIP [RPS18A] ; criterion: protein stability index no lower than 3. Met?
Ans. Not satisfied

Qu. Record VIQIVTGIFMAMHYSSN [COB] ; criterion: protein stability index no lower than 3. Met?
Ans. Not satisfied

Qu. Record QFDIQSPLYMDTETFDT [YML103C/NUP188] ; criterion: protein stability index no lower than 3. Met?
Ans. Satisfied

Qu. Record INHTILGKLQDVFNLLP [RPN8] ; criterion: protein stability index no lower than 3. Met?
Ans. Satisfied

Qu. Record TLSFNFSQKANKTKAVD [YOR098C/NUP1] ; criterion: protein stability index no lower than 3. Met?
Ans. Not satisfied

Qu. Record GGNGPEDFQQHEQIRRK [RPO26] ; criterion: protein stability index no lower than 3. Met?
Ans. Satisfied

Qu. Record LQCHISGTTNFMRNGLL [UBP6] ; criterion: protein stability index no lower than 3. Met?
Ans. Not satisfied

Qu. Record SNLEKLPKYKEKKAASA [MED7] ; criterion: protein stability index no lower than 3. Met?
Ans. Not satisfied

Qu. Record ASGSINRKVLQALEKIG [RPS19A] ; criterion: protein stability index no lower than 3. Met?
Ans. Not satisfied

Qu. Record MEDIEKIKPYVRSFSKA [LRP1] ; criterion: protein stability index no lower than 3. Met?
Ans. Not satisfied

Qu. Record TVIPEDEEIIQLHFSLL [RPO21] ; criterion: protein stability index no lower than 3. Met?
Ans. Not satisfied

Qu. Record LITTYSKLSKNISFYKL [SIN4] ; criterion: protein stability index no lower than 3. Met?
Ans. Not satisfied

Qu. Record MSDSIISFAAFILADAG [RPP1B] ; criterion: protein stability index no lower than 3. Met?
Ans. Not satisfied

Qu. Record VQYKLLSISVPSDVNID [SNU114] ; criterion: protein stability index no lower than 3. Met?
Ans. Not satisfied

Qu. Record LTHPKYLNSRIIPTTLE [YML103C/NUP188] ; criterion: protein stability index no lower than 3. Met?
Ans. Not satisfied

Qu. Record AEEQTKLQSQSLHTKNV [YLR018C/POM34] ; criterion: protein stability index no lower than 3. Met?
Ans. Satisfied

Qu. Record GWFHSHPGYDCWLSNID [RRI1] ; criterion: protein stability index no lower than 3. Met?
Ans. Not satisfied

Qu. Record YRATSLDPSLRAPIYHS [YML031W/NDC1] ; criterion: protein stability index no lower than 3. Met?
Ans. Not satisfied

Qu. Record SVPLMINAKNIAFASNY [RRP43] ; criterion: protein stability index no lower than 3. Met?
Ans. Not satisfied

Qu. Record VQQFAQLPVGFKNMGNT [UBP6] ; criterion: protein stability index no lower than 3. Met?
Ans. Not satisfied

Qu. Record KKVVLRLECVKCKTRAQ [RPL42A] ; criterion: protein stability index no lower than 3. Met?
Ans. Not satisfied

Qu. Record KDKLREFIPHSTEYMMQ [RPN6] ; criterion: protein stability index no lower than 3. Met?
Ans. Satisfied

Qu. Record NTEQGDSDELGGESMEG [SNM1] ; criterion: protein stability index no lower than 3. Met?
Ans. Satisfied

Qu. Record AKDKEIYNKMIGVLNNS [RPN13] ; criterion: protein stability index no lower than 3. Met?
Ans. Not satisfied

Qu. Record RIANIEQNHLDNNYNTA [YDL088C/ASM4] ; criterion: protein stability index no lower than 3. Met?
Ans. Satisfied

Qu. Record VVRIKGINKIPPKPRKV [RPL7A] ; criterion: protein stability index no lower than 3. Met?
Ans. Not satisfied

Qu. Record QIDYKLESFQAVYNKLT [RPS7A] ; criterion: protein stability index no lower than 3. Met?
Ans. Not satisfied

Numbers sourced from the supplement of paper PMC9732359.
